Origin of measurements: the METLIN SMRT retention time set (Domingo-Almenara et al. 2019)

assay: gradient 5% acetonitrile 3 min, to 50% in 2 min, to 85% in 15 min, held 3 min, 100 µL/min; details: column: Zorbax Extend-C18 2.1 x 50 mm; eluents: water / acetonitrile, 0.1% formic acid
readout type: RP-LC retention time (s)
Your answer should be a plain number; it is taken to be in s.

// RP-LC retention time lookup, key: COc1ccc(OC)c(NC(=O)NC2CCN(c3ccc(C)cc3)C2=O)c1 (stereo not given)
837

Proceed to `Cc1ccc(Cn2nc3c(S(=O)(=O)N4CCN(c5ccc(F)cc5)CC4)cccn3c2=O)cc1`
1020

Proceed to `CCc1nnc(-c2cc(C)n(CC(=O)Nc3cc(C)cc(C)c3)c2C)o1`
887

Proceed to `CC1=C(c2ccc(C)c(C)c2)S(=O)(=O)N=C1N1CCCN(C(=O)C2CCCC2)CC1`
912

Proceed to `Cc1nc2cc(-c3noc(Cc4c(Cl)cccc4Cl)n3)ccc2o1`
1130

Proceed to `CCS(=O)(=O)N1CCCc2cc(C(=O)NC3CCCC3)ccc21`
837

Proceed to `O=C(COc1ccc(Cl)cc1)N1CCN(c2cc(-c3cccs3)[nH]n2)CC1`
864

Proceed to `CN(C)c1ccc(CNC(=O)C2CCN(S(=O)(=O)c3ccc4c(c3)NC(=O)CO4)CC2)cc1`
598

Proceed to `Cc1ccc(CNC(=O)CCc2ccc3cc[nH]c3c2)cc1`
879

Proceed to Cc1cc(F)ccc1N1C(=O)CN(S(C)(=O)=O)CC1(C)C(=O)NCc1ccc(Cl)cc1 (stereo not given)
856

Proceed to `O=C(NCC1(c2cccs2)CCOCC1)C(=O)Nc1cccnc1`
600

Proceed to `CCN1c2cc(F)ccc2C(=O)NC12CCN(C(=O)c1ccccc1C)CC2`
835

Proceed to Cc1cccc(Sc2nccnc2N2CCCC(C(=O)NCc3ccccc3C)C2)c1 (stereo not given)
1150

Proceed to `COc1cc(NC(=O)N2CCCN(c3ccc(=O)n(-c4ccccc4)n3)CC2)cc(OC)c1OC`
694

Proceed to `O=C(c1csc(-c2ccc(N3CCCC3)nc2)n1)N1CCCCCC1`
937

Proceed to Cc1ccc(C(=O)CC2(O)C(=O)Nc3ccc(C)cc32)cc1 (stereo not given)
755

Proceed to COC(=O)c1c(C)[nH]c(C(=O)N2CCC(CC(=O)NC(C)CCc3ccccc3)CC2)c1C (stereo not given)
880

Proceed to `Cc1cccc(-c2nc(-c3cn(-c4ccccc4)nn3)no2)c1`
1060

Proceed to `CN(C(=O)CSc1cc(NCc2ccc(Cl)cc2)ncn1)C1CCCCC1`
956

Proceed to CC(C)(C)C(=O)N1CCOC(c2ccccc2)C1 (stereo not given)
831

###

test: gradient 5% acetonitrile 3 min, to 50% in 2 min, to 85% in 15 min, held 3 min, 100 µL/min; conditions: column: Zorbax Extend-C18 2.1 x 50 mm; eluents: water / acetonitrile, 0.1% formic acid
Short version: RP-LC retention time at least 700 s is True, less is False.

Please tell me: is the compound `O=C(Nc1nc(-c2ccccc2)c(-c2ccccc2)s1)c1ccc(Br)s1` at or over 700 s in terms of RP-LC retention time?
True

Proceed to `O=C(Cn1nc2ccc(C(=O)NCc3ccccc3)cn2c1=O)NCCC1=CCCCC1`
True

Proceed to CCCCNC(=O)C1CCC(=O)N(c2ccc(OC)cc2)C1c1ccc(OC)cc1 (stereo not given)
True

Proceed to `Cn1ncn2cc(S(=O)(=O)NCc3ccccc3Cl)cc2c1=O`
True

Proceed to `O=C(c1csc(N2CCN(c3ccccc3)CC2)n1)N1CCCCC1`
True

Proceed to CC(C)CN1C(=O)c2cccn2CC1CNC(=O)C1(c2ccccc2)CC1 (stereo not given)
True

Proceed to `COc1ccc(Cn2c(C)c(CNCc3cccnc3)c(C(=O)O)c2C)cc1`
False

Proceed to `O=C(O)c1ccccc1-c1ccccc1C(=O)Nc1ccc2c(c1)Cc1ccccc1-2`
True

Proceed to `COc1ccc(Cl)cc1C(=O)NCCc1c[nH]c2ccc(C)cc12`
False

Proceed to `COc1ccc(C)cc1NC(=O)C1CCN(C(=O)C(C)(C)C)CC1`
True

Proceed to `COc1ccc(S(=O)(=O)NCc2cccnc2-c2cccc(C)c2)cc1Cl`
True

Proceed to `Cn1nc2n(c1=O)CCN(Cc1cn[nH]c1-c1ccc(F)cc1)C2`
False

Proceed to `O=C(Nc1ccc(C2(C(=O)N3CCCCCC3)CCC2)cc1)C1CC1`
True

Proceed to CCOC(=O)c1c(C)c(C(=O)CN(CC2CCCO2)C(=O)c2ccc(F)cc2)c(C)n1CC (stereo not given)
True

Proceed to `Cc1ccc([N+](=O)[O-])cc1S(=O)(=O)N1CCN(c2cccc(Cl)c2)CC1`
False

Proceed to COc1ccc(-c2nc(C3CC(=O)N(c4ccc(C)cc4)C3)no2)c(OC)n1 (stereo not given)
True

Proceed to `COCCNC(=O)CCCN1C(=O)c2ccccc2Sc2ncccc21`
False

Proceed to `Cc1ccn2cc(-c3ccc(NS(=O)(=O)c4ccccc4Cl)cc3)nc2n1`
False

###

experiment: gradient 5% acetonitrile 3 min, to 50% in 2 min, to 85% in 15 min, held 3 min, 100 µL/min; conditions: column: Zorbax Extend-C18 2.1 x 50 mm; eluents: water / acetonitrile, 0.1% formic acid
Give RP-LC retention time for every item shown.
Give the number first and the unit second.

// RP-LC retention time lookup, key: `CSc1nc(Nc2cccc(Cl)c2)c(C#N)c(-c2ccccc2)n1`
1280 s

Proceed to `Cc1cc(C)c(C#N)c(SCC(=O)Nc2nccs2)n1`
750 s

Proceed to `Cc1ccc(Nc2cc(N3CCC(C(=O)NCc4ccco4)CC3)ncn2)cc1`
664 s

Proceed to `Cc1ccc(C(=O)N2CCC3(CC2)N=C(c2ccccc2)NO3)s1`
810 s

Proceed to `CCc1nnc2nc(N3CCN(C(=O)c4ccc(Br)cc4)CC3)cc(C)n12`
638 s

Proceed to `CCN(CC)S(=O)(=O)c1cccc(-c2cn3cc(C)ccc3n2)c1`
598 s

Proceed to `COc1cccc(CNC2=NCCNC23CCN(S(=O)(=O)c2ccc(Cl)cc2)CC3)c1`
738 s

Proceed to `Cc1ccc(NC(=O)c2nc3ccccc3[nH]c2=O)c(C)c1`
778 s

Proceed to CN1C(=O)c2cccn2CC1CNC(=O)Nc1ccccc1 (stereo unspecified)
647 s

Proceed to `CCCc1noc(-c2ccnc(-n3ncc(C(=O)NCC)c3C)c2)n1`
828 s

Proceed to `CN(C)[C@@H]1CN(C(=O)c2cccc(Br)c2)C[C@H]1CO`
573 s

Proceed to COc1cccc(-c2[nH]ncc2CN2CCC3(CCC3O)CC2)c1 (stereo unspecified)
586 s

Proceed to `Cc1ccc(S(=O)(=O)NNC(=O)C23CCC(CC2)C3)cc1`
873 s

Proceed to Cc1oc(-c2ccc(C(=O)NCCCN3CCN(C)CC3)cc2)nc1CS(=O)c1ccccc1 (stereo unspecified)
581 s

Proceed to `CC(C)NC(=O)Nc1cccc(Cl)c1`
854 s

Proceed to COc1ccc(C(C)NC(=O)c2cn3nc(Cl)ccc3n2)cc1OC (stereo unspecified)
755 s

Proceed to COc1ccc(NC(=O)C2CCCN(c3cnc4nccnc4c3)C2)cc1 (stereo unspecified)
698 s

Proceed to `Fc1cccc(Cn2cc(-c3noc(-c4ccc5cc[nH]c5c4)n3)nn2)c1`
996 s

Proceed to Cc1cnc(C2CCN(S(=O)(=O)c3ccccc3)C2)n1C(C)C (stereo unspecified)
564 s

Proceed to `Cc1c(C(=O)NC2CC2)cnn1-c1cc(-c2nc(C3CC3)no2)ccn1`
843 s

Proceed to `O=C(NCc1ccc2c(c1)OCO2)c1cn2c(n1)CSCC2`
650 s

###

experiment: gradient 5% acetonitrile 3 min, to 50% in 2 min, to 85% in 15 min, held 3 min, 100 µL/min; conditions: column: Zorbax Extend-C18 2.1 x 50 mm; eluents: water / acetonitrile, 0.1% formic acid
readout type: RP-LC retention time
Give the number first and the unit second.

// RP-LC retention time lookup, key: Cn1nc(C(=O)N2CCCC(C(=O)Nc3ccccc3)C2)c2c1CCN(C(=O)c1ccco1)C2 (centres undefined)
717 s

Proceed to `Clc1ccc(Cc2nc(-c3cccc(-c4ccn[nH]4)c3)no2)cc1`
1010 s

Proceed to `O=C(CN1CCN(Cc2ccccc2F)C1=O)NCc1ccc(F)cc1`
808 s

Proceed to `c1ccc(NN(Cc2ccncc2)c2ccccc2)cc1`
774 s

Proceed to N#Cc1ccc(C(=O)N2CCCC(COc3ccc(C(=O)NC4CC4)cc3)C2)cc1 (centres undefined)
757 s

Proceed to `COc1ccccc1C(=O)Nc1ccc2nc(N3CCN(C4CCCCC4)CC3)cc(C(=O)O)c2c1`
638 s

Proceed to `N#CC1(C(=O)NCCOc2ccc(F)cc2)CC1`
728 s

Proceed to CCCCC(=O)Nc1nc(-c2ccc3c(c2)NC(=O)C(C)O3)c(C)s1 (centres undefined)
871 s

Proceed to `CN(C)C(=O)c1ccc(-c2nnc3ccc(NC(=O)C4CCC4)cn23)cc1`
664 s

Proceed to COc1ccc2c(c1)C1(CCN(C(=O)Nc3ccccc3OC)C1)C(=O)N2C (centres undefined)
808 s

Proceed to CC(C)OCCCNC(=O)CN1C(=O)C2CCCCN2c2ccc(C(=O)N3CCCC3)cc21 (centres undefined)
746 s

Proceed to Cc1ccc2c(c1)N(S(C)(=O)=O)CCC(C(=O)Nc1ccccc1F)O2 (centres undefined)
918 s

Proceed to `CCC1(CC)NC(=O)N(CC(=O)Nc2ccc(F)cc2F)C1=O`
677 s

Proceed to `CCCN1C(=O)COc2ccc(-c3csc(NC(=O)COc4ccc(Cl)cc4Cl)n3)cc21`
1210 s

Proceed to `COc1cccc(NC(=O)C2CCN(S(=O)(=O)c3ccc4c(c3)sc(=O)n4C(C)C)CC2)c1`
960 s

Proceed to `Cc1[nH]c(C)c(S(=O)(=O)N2CCN(c3ccccn3)CC2)c1C(=O)N1CCCC1`
586 s

Proceed to O=C(O)c1ccccc1SC1CC(=O)N(c2ccccc2OC(F)F)C1=O (centres undefined)
741 s

Proceed to COc1cc([C@@H]2c3cc4c(cc3[C@@H](O[C@@H]3O[C@@H]5COC(c6cccs6)O[C@H]5[C@H](O)[C@H]3O)[C@H]3COC(=O)[C@H]23)OCO4)cc(OC)c1O (some centres undefined)
780 s

Proceed to `CCOC(=O)N1CCN(c2nnc(SCC(=O)NCc3ccco3)s2)CC1`
668 s
